Parameter pKd: see the listing below.
experimental.target: Aβ1-40 fibers (human)
assay.details: SPR
Hey, just a heads up that pKd is the negative log base 10 of the concentration in molar.

MS-R 7.4.H2 x 7.2.L1 IgG1 (antibody, V domains shown) VH: QLVESGGGLVQPGGSLRLSCAASGFTFSSYAMSWVRQAPGKGLEWVSAINYNGARIYYADSVKGRFTISRDNSKNTLYLQMNSLRAEDTAVYYCARGKGNTHKPYGYVRYFDVWGQGTLVTVSS VL: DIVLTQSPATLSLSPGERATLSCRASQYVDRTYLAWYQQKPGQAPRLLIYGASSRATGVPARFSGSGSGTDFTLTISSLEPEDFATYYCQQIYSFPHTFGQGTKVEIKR = 9.20

Consider the record given below.
Which pKd value belongs to MS-R 3.6.H5 x 3.6.L2 IgG1 (antibody, V domains shown) VH: QLVESGGGLVQPGGSLRLSCAASGFTFSSYAMSWVRQAPGKGLEWVSAISESGKTKYYADSVKGRFTISRDNSKNTLYLQMNSLRAEDTAVYYCARLTHYARYYRYFDVWGQGTLVTVSS VL: DIVLTQSPATLSLSPGERATLSCRASQFLSRYYLAWYQQKPGQAPRLLIYGASSRATGVPARFSGSGSGTDFTLTISSLEPEDFAVYYCQQTYNYPPTFGQGTKVEIKR ?
8.99
